# ASSAY_PROTOCOL: in vitro
# ASSAY_SETUP: human, Caco-2, pH 7.4
Measured Papp A→B at 60 min, 35 µM, listed per entry for reference.
Enter your answer as a number in ×10⁻⁶ cm/s; do not include the unit.

// below: answered compounds
COMPOUND	UNIT_TAG	REPORTED_VALUE
CC(C)NC[C@H](O)COc1cccc2ccccc12 [[^3H]-Propranolol, L-(−)-[4-^3H]propranolol]	×10⁻⁶ cm/s	36
OC[C@@H](O)[C@@H](O)[C@H](O)[C@H](O)CO [[^3H]-Mannitol, D-[1-^3H(N)]Mannitol]	×10⁻⁶ cm/s	1.01

Proceed to the following item.
Task: Item under review: O=S(=O)(c1cccc2cnccc12)N1CCCNCC1 . Reported Papp A→B at 60 min, 35 µM?
Result: 18.9

====

# ASSAY_PROTOCOL: in vitro
# ASSAY_SETUP: human, Caco-2, pH 7.4
// values below are reported Papp A→B at 60 min
Write it as a number; the unit ×10⁻⁶ cm/s goes unstated.

COMPOUND	Papp A→B at 60 min (×10⁻⁶ cm/s)
CC(C)NC[C@H](O)COc1cccc2ccccc12 [[^3H]-Propranolol, L-(−)-[4-^3H]propranolol]	32.3

// next entry
Task: So what does the record say about Papp A→B at 60 min for OC[C@@H](O)[C@@H](O)[C@H](O)[C@H](O)CO [[^3H]-Mannitol, D-[1-^3H(N)]Mannitol] ?
Result: 2.62

====

# ASSAY_PROTOCOL: in vitro
# ASSAY_SETUP: human, Caco-2, pH 7.4
PROPERTY_LABEL: Papp B→A at 60 min, 35 µM

Sample records with Papp B→A at 60 min, 35 µM:
COMPOUND	Papp B→A at 60 min, 35 µM
OC[C@@H](O)[C@@H](O)[C@H](O)[C@H](O)CO [[^3H]-Mannitol, D-[1-^3H(N)]Mannitol]	0.821 ×10⁻⁶ cm/s
O=S(=O)(c1cccc2cnccc12)N1CCCNCC1	18.5 ×10⁻⁶ cm/s

Here is another compound to look at.
Task: Query: Papp B→A at 60 min, 35 µM; subject: CC(C)NC[C@H](O)COc1cccc2ccccc12 [[^3H]-Propranolol, L-(−)-[4-^3H]propranolol]
Result: 27.8 ×10⁻⁶ cm/s

====

# TESTED_TARGET: ROCK I recombinantly-produced kinase domain (Homo sapiens (Human))
# Sequence (Q13464 76-338): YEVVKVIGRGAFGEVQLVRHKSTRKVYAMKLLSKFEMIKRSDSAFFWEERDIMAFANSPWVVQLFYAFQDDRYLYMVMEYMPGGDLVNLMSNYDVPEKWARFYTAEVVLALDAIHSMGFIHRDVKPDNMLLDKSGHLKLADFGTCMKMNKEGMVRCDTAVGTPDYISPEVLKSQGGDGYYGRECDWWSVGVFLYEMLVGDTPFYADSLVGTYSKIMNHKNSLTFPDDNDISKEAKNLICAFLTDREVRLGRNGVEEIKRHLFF
# ASSAY_SETUP: read-out: ROCK I IC50; ATP 10 μM, substrate 200 nM; Fasudil mean ± SD of 3-4 experiments; BA-1049 two individual experiments
PROPERTY_LABEL: IC50 (µM)
Report only the number, with the unit µM understood.

Task: Write down the reported IC50 of CC(N)C1CCN(S(=O)(=O)c2cccc3cnccc23)CC1.Cl.Cl (racemic) , test system: ROCK I recombinantly-produced kinase domain (Homo sapiens (Human)).
Result: 21
